Values from patent US20230150970A1

Target: AhR (Homo sapiens, UniProt P35869)
Assay: In Vitro Assay 4: endogenous AhR activity assay (CYP1A1 and CYP1B1 mRNA, qRT-PCR, HepG2 cells)
Conditions: HepG2, read-out: CYP1A1 (% Inhibition)
We begin with a simple list: items and their reported inhibition at 0.123 µM.
Field format: number, assumed %, no unit text.

Worked cases, inhibition at 0.123 µM given:
molecule	readout.units	recorded.value
OCC1CCN(c2cc(-c3ccc(N4CCOCC4)cc3)nc(-c3cccnc3)n2)CC1 [Example 268]	%	102
O[C@H]1CCN(c2cc(-c3ccc(C(F)(F)F)cc3)nc(-c3cncc(F)c3)n2)C1 [Example 327]	%	106

The molecule listed as Cc1ccc(-c2cc(N3CCC(CO)CC3)nc(-c3cccnc3)n2)cc1 [Example 229] has a reported inhibition at 0.123 µM of 108

The molecule listed as O=S(=O)(CCO)N1CCN(c2cc(-c3ccc(Cl)cc3)nc(-c3cccnc3)n2)CC1 [Example 239] has a reported inhibition at 0.123 µM of 108

The molecule listed as O[C@@H]1CN(c2cc(-c3ccc(Cl)cc3)nc(-c3cccnc3)n2)C[C@@H]1F [Example 235] has a reported inhibition at 0.123 µM of 106

The molecule listed as CC1CCN(c2cc(-c3ccc(Cl)cc3)nc(-c3cccnc3)n2)CC1 [Example 27] has a reported inhibition at 0.123 µM of 68.4

The molecule listed as OCCC1CCN(c2cc(-c3ccc(Cl)cc3)nc(-c3cccnc3)n2)CC1 [Example 43] has a reported inhibition at 0.123 µM of 97.1

The molecule listed as CC(=O)N[C@@H]1CN(c2cc(-c3ccc(Cl)cc3)nc(-c3cccnc3)n2)C[C@@H]1O [Example 243] has a reported inhibition at 0.123 µM of 89.7

The molecule listed as O[C@H]1CCN(c2cc(-c3ccc(Cl)cc3)nc(-c3cncc(F)c3)n2)C1 [Example 323] has a reported inhibition at 0.123 µM of 108

The molecule listed as O=S(=O)(CCO)N1CCN(c2cc(-c3ccc(C(F)(F)F)cc3)nc(-c3cccnc3)n2)CC1 [Example 349] has a reported inhibition at 0.123 µM of 97.6

The molecule listed as CN1CCN(c2cc(-c3ccc(Cl)cc3)nc(-c3cccnc3)n2)CC1 [Example 105] has a reported inhibition at 0.123 µM of 59.2

The molecule listed as O=S(=O)(C(F)F)N1CCN(c2cc(-c3ccc(Cl)cc3)nc(-c3cccnc3)n2)CC1 [Example 339] has a reported inhibition at 0.123 µM of 84.7

The molecule listed as O=C1CN(c2cc(-c3ccc(Cl)cc3)nc(-c3cccnc3)n2)CCN1 [Example 94] has a reported inhibition at 0.123 µM of 63.1

The molecule listed as CC(=O)N1CCCN(c2cc(-c3ccc(Cl)cc3)nc(-c3cccnc3)n2)C1 [Example 232] has a reported inhibition at 0.123 µM of 100

The molecule listed as COc1ccc(-c2cc(N3CCC(CO)CC3)nc(-c3cccnc3)n2)cc1 [Example 228] has a reported inhibition at 0.123 µM of 107

The molecule listed as OCC1CCN(c2cc(-c3ccc(Cl)cc3)nc(-c3cccnc3)n2)CC1 [Example 42] has a reported inhibition at 0.123 µM of 98.8

The molecule listed as O=C(CCO)N1CCN(c2cc(-c3ccc(Cl)cc3)nc(-c3cccnc3)n2)CC1 [Example 352] has a reported inhibition at 0.123 µM of 87.2

----------
Target: AhR (Homo sapiens, UniProt P35869)
Assay: In Vitro Assay 1: XRE-luciferase reporter assay, antagonism in human cell line (HepG2)
Details: Assay 1: AhR-Luc Human Antagonism (IC50, nM), values marked *: kynurenine 50 μM, 6 hours
We begin with a simple list: items and their reported IC50.

compound	experimental.system	IC50
N[C@H]1CCCN(c2cc(-c3ccc(Cl)cc3)nc(-c3cccnc3)n2)C1	AhR (Homo sapiens, UniProt P35869)	> 1000 nM
O=C(c1ccco1)N1CCN(c2cc(-c3ccc(Cl)cc3)nc(-c3cccnc3)n2)CC1	AhR (Homo sapiens, UniProt P35869)	10 to 100 nM
Cn1cc(-c2nc(-c3ccc(Cl)cc3)cc(N3CCC(C#N)CC3)n2)cn1	AhR (Homo sapiens, UniProt P35869)	100 to 1000 nM
CCC1CN(c2cc(-c3ccc(Cl)cc3)nc(-c3cccnc3)n2)CCN1 (stereo not drawn)	AhR (Homo sapiens, UniProt P35869)	> 1000 nM
Clc1ccc(-c2cc(N3CCC4CCCOC4C3)nc(-c3cccnc3)n2)cc1 (stereo not drawn)	AhR (Homo sapiens, UniProt P35869)	10 to 100 nM

The compound listed as "CN1C(C)(C)CC(Nc2cc(-c3ccc(Cl)cc3)nc(-c3cccnc3)n2)CC1(C)C" has a reported IC50 of > 1000 nM

The compound listed as CC(C)C(CO)Nc1cc(-c2ccc(Cl)cc2)nc(-c2cccnc2)n1 (stereo not drawn) has a reported IC50 of 100 to 1000 nM

The compound listed as "Clc1ccc(-c2cc(N3CCN(c4ccccc4)CC3)nc(-c3cccnc3)n2)cc1" has a reported IC50 of 10 to 100 nM

The compound listed as "Clc1ccc(-c2cc(NCCCN3CCOCC3)nc(-c3cccnc3)n2)cc1" has a reported IC50 of > 1000 nM

The compound listed as "Clc1ccc(-c2cc(N3CCN(C(c4ccccc4)c4ccccc4)CC3)nc(-c3cccnc3)n2)cc1" has a reported IC50 of > 1000 nM

The compound listed as FC(F)(F)C1CCCN(c2cc(-c3ccc(Cl)cc3)nc(-c3cccnc3)n2)C1 (stereo not drawn) has a reported IC50 of 100 to 1000 nM

----------
Target: AhR (Homo sapiens)
Sequence (P35869 11-848): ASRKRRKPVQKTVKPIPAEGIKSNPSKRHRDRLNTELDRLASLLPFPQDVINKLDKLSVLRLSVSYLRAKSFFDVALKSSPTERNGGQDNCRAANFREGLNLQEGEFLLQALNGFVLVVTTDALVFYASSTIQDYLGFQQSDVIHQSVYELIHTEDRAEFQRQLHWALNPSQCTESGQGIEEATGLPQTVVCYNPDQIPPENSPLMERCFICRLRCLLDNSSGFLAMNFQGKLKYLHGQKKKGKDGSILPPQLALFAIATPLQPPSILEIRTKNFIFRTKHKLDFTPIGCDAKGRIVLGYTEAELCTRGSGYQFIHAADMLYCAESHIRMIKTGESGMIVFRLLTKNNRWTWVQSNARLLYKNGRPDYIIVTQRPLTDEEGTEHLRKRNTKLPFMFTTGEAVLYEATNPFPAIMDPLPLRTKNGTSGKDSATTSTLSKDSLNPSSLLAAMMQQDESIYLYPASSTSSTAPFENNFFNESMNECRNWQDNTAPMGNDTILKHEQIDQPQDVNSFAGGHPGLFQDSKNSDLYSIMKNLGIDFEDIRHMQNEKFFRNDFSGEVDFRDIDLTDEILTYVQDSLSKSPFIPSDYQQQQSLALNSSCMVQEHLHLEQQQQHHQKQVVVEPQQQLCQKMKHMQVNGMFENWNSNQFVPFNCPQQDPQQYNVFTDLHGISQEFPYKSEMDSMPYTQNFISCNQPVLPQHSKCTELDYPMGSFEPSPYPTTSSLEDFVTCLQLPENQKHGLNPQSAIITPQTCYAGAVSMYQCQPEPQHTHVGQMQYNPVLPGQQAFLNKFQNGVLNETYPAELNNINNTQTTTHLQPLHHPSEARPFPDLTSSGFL
Experiment: In Vitro Assay 1: XRE-luciferase reporter assay, antagonism in human cell line (HepG2)
Conditions: Assay 1: AhR-Luc Human Antagonism (IC50, nM), values marked *: kynurenine 50 μM, 6 hours
attribute.measured: IC50

Worked cases, IC50 given:
molecule	experimental.system	attribute.measured	recorded.value
Clc1ccc(-c2cc(N3CCCCC3)nc(-c3cccnc3)n2)cc1 [Example 46]	AhR (Homo sapiens)	IC50	100 to 1000 nM
O[C@@H]1CCN(c2cc(-c3ccc(Cl)cc3)nc(-c3cccnc3)n2)C1 [Example 194]	AhR (Homo sapiens)	IC50	< 10 nM
Clc1ccc(-c2cc(N3CCN(CCc4ccccc4)CC3)nc(-c3cccnc3)n2)cc1 [Example 87]	AhR (Homo sapiens)	IC50	10 to 100 nM
CC(C)(C)Nc1cc(-c2ccc(Cl)cc2)nc(-c2cccnc2)n1 [Example 28]	AhR (Homo sapiens)	IC50	> 1000 nM
CC(C)(CO)Nc1nc(-c2ccc(Cl)cc2)cc(-c2cccnc2)n1 [Example 5]	AhR (Homo sapiens)	IC50	> 1000 nM
CCOC(=O)CC1CCN(c2cc(-c3ccc(Cl)cc3)nc(-c3cccnc3)n2)CC1 [Example 161]	AhR (Homo sapiens)	IC50	> 1000 nM

The molecule listed as CCN1CCN(c2cc(-c3ccc(Cl)cc3)nc(-c3cccnc3)n2)CC1 [Example 106] has a reported IC50 of 10 to 100 nM

The molecule listed as F[C@@H]1CNCC[C@H]1Nc1cc(-c2ccc(Cl)cc2)nc(-c2cccnc2)n1 [Example 205] has a reported IC50 of > 1000 nM

The molecule listed as Clc1ccc(-c2cc(NCC3CCCNC3)nc(-c3cccnc3)n2)cc1 (stereo not drawn) [Example 55] has a reported IC50 of > 1000 nM
